Values from the supplement of paper PMC10567573

- assay_name: protein stability index of a GFP-peptide fusion (GPS, HEK-293T) (PSI 1-6); higher = more stable;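 note: 24-mer peptide tiles fused after GFP, lentivirally expressed, FACS-sorted into six equal bins by GFP/DsRed ratio, decoded by Illumina sequencing, PSI is the read-weighted mean bin number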
- experimental_context: treatment: DMSO; c terminus: a fixed tail appended
Please respond with reported protein stability index for every item in the list.
Format: numeric value only, no unit, no commentary.

What value of protein stability index has been reported for the following sequence? CFKAAFLDFKDLLESEDWEEDNWD [TEX19]
2.95

What value of protein stability index has been reported for the following sequence? KTMPKSVVGLHAASKDPREVREAR [EHMT1]
4.78

What value of protein stability index has been reported for the following sequence? LSRLQRVKFCLLGALLAPIRVLLA [LPCAT4]
3.67

What value of protein stability index has been reported for the following sequence? GGGGVAAVVVLDQGSRHWQKLREE [DUSP5]
2.96

What value of protein stability index has been reported for the following sequence? CKVGASSDPCGQLRPTLLLTSLHH [PNLIPRP1]
2.1

What value of protein stability index has been reported for the following sequence? HCVTSDPATSPLVLAIPRRLRVEL [TRIM35]
2.3

What value of protein stability index has been reported for the following sequence? KELGTLIPKSSDPEMRWNKGTILK [TFE3]
4.06

What value of protein stability index has been reported for the following sequence? YSQKESGHSNWLGDPEEPLTGFSW [ATL3]
1.92

What value of protein stability index has been reported for the following sequence? RMLFWACSTNKPEGYRVSQALREN [FAF2]
2.27

What value of protein stability index has been reported for the following sequence? KAILDAEPGPRPALQPSPSIRLPL [TBC1D10A]
4.27

What value of protein stability index has been reported for the following sequence? EGLAFLVSCPEGRADCASESACSS [PWWP2B]
3.6

What value of protein stability index has been reported for the following sequence? NHILECEFYLLELMDCCLIVYHPY [CCNC]
3.12

What value of protein stability index has been reported for the following sequence? KLYTGPGLAIHCMQVHKETIDAVP [ZNF207]
2.5

What value of protein stability index has been reported for the following sequence? EILHQQNIHQLQNRLSELEVANKD [SASS6]
3.99

What value of protein stability index has been reported for the following sequence? GAQVKELEEKCQQPASELLQDVRV [TRIM15]
5.4

What value of protein stability index has been reported for the following sequence? EGENYQKGERGEDSSEEKHLEEPG [CHGB]
5.63

What value of protein stability index has been reported for the following sequence? CIPASSSFVYGAVPIGASIYVIGD [GAN]
2.97

What value of protein stability index has been reported for the following sequence? PDQAYDFLLKFLLVGDRDVGKSEI [RAB40A]
2.46

What value of protein stability index has been reported for the following sequence? KNQGEENGFPDSTGDPLPEISKDN [EDARADD]
5.5

What value of protein stability index has been reported for the following sequence? SSHHSHSYIGLPYADHNYGARPPP [KMT2E]
3.46

What value of protein stability index has been reported for the following sequence? EECPAHLLEDPLCADVILVLQERV [RHOBTB2]
3.4

---

Please respond with reported protein stability index for every item in the list.
- assay_name: protein stability index of a GFP-peptide fusion (GPS, HEK-293T) (PSI 1-6); higher = more stable
- experimental_context: treatment: DMSO; c terminus: a fixed tail appended
Format: numeric value only, no unit, no commentary.

What value of protein stability index has been reported for the following sequence? RFLVGMMNGGMSLVAFVLLNECVG [SLC22A15]
3.25

What value of protein stability index has been reported for the following sequence? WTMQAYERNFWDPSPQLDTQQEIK [WDR41]
3.16

What value of protein stability index has been reported for the following sequence? VKLNVGGSLHYTTLRTLTGQDTML [KCTD13]
2.45

What value of protein stability index has been reported for the following sequence? QFHALQSKLEERFGPDSKSSALAC [NCF4]
3.5

What value of protein stability index has been reported for the following sequence? SSNKKEKKVLNHGYDDDNHDYIVR [DYRK1B]
4.55

What value of protein stability index has been reported for the following sequence? NNFDNLDFDLDLVPWESDIWDINN [ATF6]
3.2

What value of protein stability index has been reported for the following sequence? DCIFDKFECAWNGSDSVIMTGAYN [PPP2R2C]
2.68

What value of protein stability index has been reported for the following sequence? RAYDLLRAASENSQDALRVVSTSG [IKZF1]
2.62
